Reference for the values: patent US12595230B2

Molecular target: ERα (Homo sapiens)
Construct: host or cells: MCF7
Sequence (P03372 1-595): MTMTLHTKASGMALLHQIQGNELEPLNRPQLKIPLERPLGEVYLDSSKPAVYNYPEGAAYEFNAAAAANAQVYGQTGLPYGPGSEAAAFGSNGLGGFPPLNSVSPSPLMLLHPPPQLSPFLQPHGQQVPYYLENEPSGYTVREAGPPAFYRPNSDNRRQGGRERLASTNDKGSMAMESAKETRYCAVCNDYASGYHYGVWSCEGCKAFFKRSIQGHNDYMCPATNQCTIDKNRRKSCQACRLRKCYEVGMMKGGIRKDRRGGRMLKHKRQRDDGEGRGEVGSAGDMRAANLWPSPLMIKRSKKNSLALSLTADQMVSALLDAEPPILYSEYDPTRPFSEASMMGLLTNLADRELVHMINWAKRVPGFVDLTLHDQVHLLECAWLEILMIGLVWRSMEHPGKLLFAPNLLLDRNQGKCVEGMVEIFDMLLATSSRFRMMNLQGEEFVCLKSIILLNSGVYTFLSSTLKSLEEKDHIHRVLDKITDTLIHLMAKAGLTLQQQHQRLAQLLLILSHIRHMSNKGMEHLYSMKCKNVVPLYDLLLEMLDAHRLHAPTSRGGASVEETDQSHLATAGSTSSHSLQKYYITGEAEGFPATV
Experiment: Estrogen receptor degradation activity: breast cancer cell ERα in cell western assay (MCF7 cells)
Format: cell-based
Details: 4 hours post compound addition, concentration which degrades 50% of the estrogen receptor, read-out: Degradation IC50
readout-label: DC50 (nM)
Answers are plain numbers, in nM.

# example entries with known answers
{"compound": "CCC1CCc2cc(C(=O)O)ccc2C(c2ccc(CC3CN(CCCF)C3)cc2)=C1c1ccc(Cl)cc1 (single isomer, unassigned) [Example 330]", "DC50, nM": 7}
{"compound": "CCC1CCc2cc(C(=O)O)ccc2C(c2ccc(CC3CN(CCCF)C3)cc2)=C1c1ccc(Cl)cc1 (racemic) [Example 315]", "DC50, nM": 1}
{"compound": "O=C(O)c1ccc2c(c1)CCCC(c1c(F)cccc1C(F)(F)F)=C2c1ccc(CC2CN(CCCF)C2)cc1", "DC50, nM": 0.3}
{"compound": "Cc1cc(Cl)ccc1C1=C(c2ccc(CC3CN(CCCF)C3)cc2)c2ccc(C(=O)O)cc2CCC1", "DC50, nM": 0.3}
{"compound": "O=C(O)c1ccc2c(c1)CCCC(c1ccc(Cl)cc1Cl)=C2c1ccc(CC2CN(CCC(F)F)C2)cc1", "DC50, nM": 0.2}
{"compound": "O=C(O)c1ccc2c(c1)CCCC(c1ccc(F)cc1CC(F)(F)F)=C2c1ccc(CC2CN(CCCF)C2)cc1", "DC50, nM": 0.6}

// next entry
Q: Report its DC50 with ERα (Homo sapiens) as the test system: N#Cc1c(C(=O)O)ccc2c1CCCC(c1ccc(Cl)cc1Cl)=C2c1ccc(CC2CN(CCCF)C2)cc1.O=CO
A: 31.6

====

target: ERα (Homo sapiens, UniProt P03372); construct: host or cells: MCF7; assay: Estrogen receptor degradation activity: breast cancer cell ERα in cell western assay (MCF7 cells); format: cell-based; conditions: 4 hours post compound addition, concentration which degrades 50% of the estrogen receptor, read-out: Degradation IC50
readout-label: DC50

{"compound": "O=C(O)c1ccc2c(c1)CCCC(C1CC3CCC1C3)=C2c1ccc(CC2CN(CCCF)C2)cc1 (mixture of isomers) [Example 307]", "DC50": "0.4 nM"}
{"compound": "CC(C)C1CCc2cc(C(=O)O)ccc2C(c2ccc(CC3CN(CCCF)C3)cc2)=C1c1ccc(Cl)cc1 (racemic) [Example 317]", "DC50": "1.6 nM"}
{"compound": "COc1ccc(C2=C(c3ccc(CC4CN(CCCF)C4)cc3)c3ccc(C(=O)O)cc3CCC2)c(F)c1 [Example 16]", "DC50": "0.4 nM"}
{"compound": "O=C(O)c1ccc2c(c1)CCCC(c1cc(F)c(F)c(F)c1)=C2c1ccc(CC2CN(CCCF)C2)cc1 [Example 267]", "DC50": "0.8 nM"}

Hi, could you look up DC50 for each item in my list?
1. Cc1ccc(C2=C(c3ccc(CC4CN(CCCF)C4)cc3)c3cc(F)c(C(=O)O)c(F)c3CCC2)c(Cl)c1 [Example 217]
2. COc1c(C(=O)O)ccc2c1CCCC(c1ccc(Cl)cc1Cl)=C2c1ccc(CC2CN(CCCF)C2)cc1 [Example 271]

A:
1. 6.2 nM
2. 16.2 nM

Hi, could you look up DC50 for each item in my list?
1. O=C(O)c1cc2c(cc1F)C(c1ccc(CC3CN(CCCF)C3)cc1)=C(c1ccc(Cl)cc1Cl)CCC2 [Example 206]
2. O=C(O)c1ccc2c(c1)CCC(C1CC1)C(c1ccc(Cl)cc1)=C2c1ccc(CC2CN(CCCF)C2)cc1 (racemic) [Example 324]
3. Cc1c(C2=C(c3ccc(CC4CN(CCC(F)(F)F)C4)cc3)c3ccc(C(=O)O)cc3CCC2)cccc1C(F)(F)F [Example 256]

A:
0.4 nM
0.8 nM
1 nM

Hi, could you look up DC50 for each item in my list?
1. O=C(O)c1ccc2c(c1)CCCC(c1cccc(Cl)c1Cl)=C2c1ccc(CC2CN(CCCF)C2)cc1 [Example 19]
2. Oc1c(F)cc2c(c1F)CCCC(c1ccc(Cl)cc1Cl)=C2c1ccc(CC2CN(CCCF)C2)cc1 [Example 305]

A:
1. 0.3 nM
2. 1.2 nM

Hi, could you look up DC50 for each item in my list?
1. O=C(O)c1ccc2c(c1)CCCC(c1ccc(Cl)cc1C(F)(F)F)=C2c1ccc(CC2CN(CCCF)C2)cc1 [Example 27]
2. Cc1c(F)cccc1C1=C(c2ccc(CC3CN(CCCF)C3)cc2)c2ccc(C(=O)O)cc2CCC1 [Example 28]
3. O=C(O)c1ccc2c(c1)CCCC(Cc1ccccc1)=C2c1ccc(CC2CN(CCCF)C2)cc1 [Example 311]
4. O=C(O)c1ccc2c(c1)CCCC(c1ccc(Cl)cc1Cl)=C2c1ccc(CC2CN(CCCF)C2)c(F)c1 [Example 239]

A:
1: 0.5 nM; 2: 0.4 nM; 3: 9 nM; 4: 0.4 nM
